# assay.comment: Toxicity liver stage against HepG2, at 10uM
# Format: cell-based
# Set-up: test concentration 10 uM, cell line HepG2-A16-CD81EGFP
# test.parameters: human, HepG2-A16-CD81EGFP cells; read-out: INHIBITION
measurement.type: cytotoxicity at 10 µM (%)
A number alone suffices; assume %.

Record excerpt, results attached:
| compound | readout.units | experimental.value |
| --- | --- | --- |
| N#Cc1cnc(NCc2ccc(C(=O)NC3CC3)cc2)c(Cl)c1 | % | -0.18 |
| COC(=O)c1cccn1C1CCN(CC(=O)NC2CCCCC2)CC1 | % | -8.21 |
| CCC(CC)(CNC(=O)OC(C)(C)C)NC(=O)C1CCOCC1 | % | 1.85 |
| CCCS(=O)(=O)N1CCOC2(CCCN(c3ccccn3)C2)C1 (stereo unspecified) | % | 4.23 |
| CCc1ncnc2c1CCN(C(=O)N1CCCC1)CC2 | % | 5.46 |
| O=S(=O)(N1CCCCC1)N1CCOC2(CCCC2)C1 | % | -3.73 |
| Cn1cc(-c2csc(N3CCCCCC3)n2)cn1 | % | 4.22 |
| CCc1ccccc1OCCN1C[C@@H](NS(C)(=O)=O)[C@H](C(C)C)C1 | % | -47.5 |

Q. I'd like to know its cytotoxicity at 10 µM. The compound in question is "O=C(CSc1nnc(N2CCNCC2)s1)Nc1ccccc1"
A. 2.84

Q. Try the compound "Cc1ccc(N2CC[C@H]3C[C@@H](C(=O)N4CCOCC4)O[C@H]3C2)nn1"
A. 4.94

Q. Try the compound "CN(C)Cc1nc(C2(NC(=O)Nc3cccc(F)c3)CCCC2)no1"
A. 2.32
